Recorded values, source paper PMC8470702.

System: Daudi cells
TEST_METHOD_NOTES: Cytotoxicity assay (MTT), 72 h
Type: cell-based, human
RECORDED_CONDITIONS: Homo sapiens, Daudi; 72 h of treatment, MTT
Procedure: Then, the tested compounds were diluted in culture medium (RPMI1640 + OptiMEM) to reach the final concentrations. […] MTT: 20 µL MTT solution (5 mg/mL of PBS, Merck) was added to wells and plates were placed in an incubator. […] The optical density of individual samples was read at a wavelength of 570 nm using a plate reader (Synergy H4 Hybrid Reader, BioTek).
// map IC50 to label using lower band: < 0.9 µM; central band: ≥ 0.9 µM and < 5 µM; upper band: ≥ 5 µM

COMPOUND_STRUCTURE_STRING	LABEL_CLASS
CN1C(=O)c2ccccc2N(CCC(=O)NO)C(=O)c2ccccc21	upper band
O=C(CCCCCN1C(=O)c2ccccc2C(=O)N(Cc2ccccc2)c2ccccc21)NO	central band
CN1C(=O)c2cc(Br)ccc2N(CCCCCC(=O)NO)C(=O)c2ccccc21	lower band
CN1C(=O)c2ccccc2N(CCCCCC(=O)NO)C(=O)c2ccccc21	central band
CN1C(=O)c2ccccc2N(CCCCC(=O)NO)C(=O)c2ccccc21	upper band
O=C(CCCN1C(=O)c2ccccc2C=Cc2ccccc21)NO	upper band
COc1cc2c(cc1OC)N(CCCCCC(=O)NO)C(=O)c1ccccc1N(C)C2=O	central band
O=C(CN1C(=O)c2ccccc2C=Cc2ccccc21)NO	upper band
O=C(CCN1C(=O)c2ccccc2C=Cc2ccccc21)NO	upper band
CN1C(=O)c2ccccc2N(CC(=O)NO)C(=O)c2ccccc21	upper band
CN1C(=O)c2ccccc2N(CCCC(=O)NO)C(=O)c2ccccc21	upper band
CN1C(=O)c2cc3ccccc3cc2N(CCCCCC(=O)NO)C(=O)c2cc(Cl)ccc21	lower band
O=C(CCCCN1C(=O)c2ccccc2C=Cc2ccccc21)NO	central band
O=C(CCCCCCN1C(=O)c2ccccc2C=Cc2ccccc21)NO	central band
O=C(CCCCCN1C(=O)c2ccccc2CCc2ccccc21)NO	lower band
O=C(CCCCCN1C(=O)c2ccccc2C=Cc2ccccc21)NO	lower band
CN1C(=O)c2ccccc2N(CCCCCCC(=O)NO)C(=O)c2ccccc21	central band
CN1C(=O)c2cc(Cl)c(Cl)cc2C(=O)N(CCCCCC(=O)NO)c2ccccc21	central band
